Give Arg(h) % activity for every item shown.
study.system: Arg(h) (Homo sapiens, UniProt P42684)
Sequence (P42684 whole entry): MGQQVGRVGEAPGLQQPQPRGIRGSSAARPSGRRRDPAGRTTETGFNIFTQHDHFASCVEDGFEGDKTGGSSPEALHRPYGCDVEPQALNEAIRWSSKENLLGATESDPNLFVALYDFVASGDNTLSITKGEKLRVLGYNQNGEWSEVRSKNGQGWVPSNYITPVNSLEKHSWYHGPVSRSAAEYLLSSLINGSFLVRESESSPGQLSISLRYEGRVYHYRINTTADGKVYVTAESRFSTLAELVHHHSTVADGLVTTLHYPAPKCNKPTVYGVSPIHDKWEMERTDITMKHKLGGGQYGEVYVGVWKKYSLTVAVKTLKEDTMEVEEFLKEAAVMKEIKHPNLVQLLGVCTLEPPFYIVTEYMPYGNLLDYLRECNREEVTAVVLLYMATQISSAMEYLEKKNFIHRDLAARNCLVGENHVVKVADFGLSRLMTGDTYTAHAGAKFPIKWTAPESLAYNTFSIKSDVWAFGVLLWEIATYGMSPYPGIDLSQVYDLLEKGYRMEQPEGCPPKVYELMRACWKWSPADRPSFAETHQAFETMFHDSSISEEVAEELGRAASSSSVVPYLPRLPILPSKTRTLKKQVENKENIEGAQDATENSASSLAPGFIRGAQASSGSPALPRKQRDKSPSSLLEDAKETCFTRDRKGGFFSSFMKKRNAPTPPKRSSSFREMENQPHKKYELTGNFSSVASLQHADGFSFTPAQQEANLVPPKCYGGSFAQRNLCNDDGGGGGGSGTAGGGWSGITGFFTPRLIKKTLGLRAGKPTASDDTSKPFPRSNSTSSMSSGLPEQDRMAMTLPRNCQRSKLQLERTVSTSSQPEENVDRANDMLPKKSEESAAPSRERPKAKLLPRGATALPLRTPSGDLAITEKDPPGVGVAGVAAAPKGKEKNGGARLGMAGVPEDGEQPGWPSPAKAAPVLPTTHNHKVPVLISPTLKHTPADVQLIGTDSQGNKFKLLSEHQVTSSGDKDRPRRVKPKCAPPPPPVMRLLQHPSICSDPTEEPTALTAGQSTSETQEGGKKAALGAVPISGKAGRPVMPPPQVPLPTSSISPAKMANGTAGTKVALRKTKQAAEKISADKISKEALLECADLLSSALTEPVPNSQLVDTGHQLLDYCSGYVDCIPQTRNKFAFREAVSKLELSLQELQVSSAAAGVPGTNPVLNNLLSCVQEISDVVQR
procedure.summary: Kinase Profiling Assay
Format: biochemical
condition.info: 100 μM peptide
Report the value in % with no unit label.

The value of Arg(h) % activity recorded for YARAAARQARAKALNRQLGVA (Mammalian) [MMI-0200] when tested on Arg(h) (Homo sapiens, UniProt P42684) reads 82

The value of Arg(h) % activity recorded for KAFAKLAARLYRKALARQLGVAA [MMI-0400] when tested on Arg(h) (Homo sapiens, UniProt P42684) reads 84

The value of Arg(h) % activity recorded for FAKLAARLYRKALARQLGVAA [MMI-0300] when tested on Arg(h) (Homo sapiens, UniProt P42684) reads 72

The value of Arg(h) % activity recorded for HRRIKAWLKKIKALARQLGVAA (Mammalian) [MMI-0500] when tested on Arg(h) (Homo sapiens, UniProt P42684) reads 22

###

study.system: FGFR1(h) (Homo sapiens)
Sequence (P11362 22-822): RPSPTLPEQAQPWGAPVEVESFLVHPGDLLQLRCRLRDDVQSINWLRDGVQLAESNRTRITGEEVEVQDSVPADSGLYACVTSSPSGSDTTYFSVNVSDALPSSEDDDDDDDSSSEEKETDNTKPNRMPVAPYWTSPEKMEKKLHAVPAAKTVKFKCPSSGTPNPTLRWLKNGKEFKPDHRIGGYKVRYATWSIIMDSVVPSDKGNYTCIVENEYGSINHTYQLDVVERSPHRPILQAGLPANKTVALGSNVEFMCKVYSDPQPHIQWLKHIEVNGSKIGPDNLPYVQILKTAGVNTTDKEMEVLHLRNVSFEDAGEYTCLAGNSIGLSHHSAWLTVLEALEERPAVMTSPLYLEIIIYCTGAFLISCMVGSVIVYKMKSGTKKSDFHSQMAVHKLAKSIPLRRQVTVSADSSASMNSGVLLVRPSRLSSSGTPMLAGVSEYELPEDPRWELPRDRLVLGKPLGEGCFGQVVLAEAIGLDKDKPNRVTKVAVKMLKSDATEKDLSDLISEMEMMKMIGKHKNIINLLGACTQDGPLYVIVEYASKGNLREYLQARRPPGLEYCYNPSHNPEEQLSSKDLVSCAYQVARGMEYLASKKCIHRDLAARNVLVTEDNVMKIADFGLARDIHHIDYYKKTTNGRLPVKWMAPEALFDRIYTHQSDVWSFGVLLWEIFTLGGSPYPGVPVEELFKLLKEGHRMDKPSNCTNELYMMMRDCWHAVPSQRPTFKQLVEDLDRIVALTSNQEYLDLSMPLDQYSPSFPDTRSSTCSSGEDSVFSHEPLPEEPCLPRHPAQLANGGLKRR
procedure.summary: Kinase Profiling Assay
Format: biochemical
condition.info: 100 μM peptide
quantity: FGFR1(h) % activity (%)
Report the value in % with no unit label.

FGFR1(h) % activity measured on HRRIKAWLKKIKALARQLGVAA (Mammalian) [MMI-0500] = 18

FGFR1(h) % activity measured on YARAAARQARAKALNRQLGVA (Mammalian) [MMI-0200] = 97

FGFR1(h) % activity measured on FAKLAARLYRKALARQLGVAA [MMI-0300] = 55

FGFR1(h) % activity measured on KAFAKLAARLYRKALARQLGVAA [MMI-0400] = 59

###

study.system: CaMKIIβ(h) (Homo sapiens, UniProt Q13554)
Sequence (Q13554 whole entry): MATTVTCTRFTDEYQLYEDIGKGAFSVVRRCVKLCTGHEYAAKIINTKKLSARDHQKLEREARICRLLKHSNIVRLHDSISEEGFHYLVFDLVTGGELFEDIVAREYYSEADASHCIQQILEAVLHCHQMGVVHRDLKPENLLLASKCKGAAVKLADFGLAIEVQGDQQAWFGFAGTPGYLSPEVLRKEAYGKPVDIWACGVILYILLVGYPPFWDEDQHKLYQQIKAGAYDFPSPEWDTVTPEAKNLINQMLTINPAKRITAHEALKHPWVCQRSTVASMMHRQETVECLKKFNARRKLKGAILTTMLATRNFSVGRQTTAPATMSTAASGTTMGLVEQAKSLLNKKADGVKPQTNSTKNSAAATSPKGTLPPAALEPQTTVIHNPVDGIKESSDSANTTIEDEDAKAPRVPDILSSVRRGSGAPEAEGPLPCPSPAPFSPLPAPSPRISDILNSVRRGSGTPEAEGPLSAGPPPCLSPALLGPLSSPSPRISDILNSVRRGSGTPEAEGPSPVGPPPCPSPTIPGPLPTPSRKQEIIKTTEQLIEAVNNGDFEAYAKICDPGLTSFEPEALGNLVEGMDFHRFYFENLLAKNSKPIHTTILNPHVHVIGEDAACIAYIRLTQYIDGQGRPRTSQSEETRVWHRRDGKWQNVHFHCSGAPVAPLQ
procedure.summary: Kinase Profiling Assay
Format: biochemical
condition.info: 100 μM peptide
Give CaMKIIβ(h) % activity for every item shown.
Report the value in % with no unit label.

CaMKIIβ(h) % activity measured on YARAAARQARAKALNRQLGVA (Mammalian) [MMI-0200] = 53

CaMKIIβ(h) % activity measured on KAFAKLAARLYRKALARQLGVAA [MMI-0400] = 11

CaMKIIβ(h) % activity measured on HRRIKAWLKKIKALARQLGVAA (Mammalian) [MMI-0500] = 3

CaMKIIβ(h) % activity measured on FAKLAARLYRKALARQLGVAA [MMI-0300] = 2

###

study.system: EphA7(h) (Homo sapiens, UniProt Q15375)
Sequence (Q15375 28-998): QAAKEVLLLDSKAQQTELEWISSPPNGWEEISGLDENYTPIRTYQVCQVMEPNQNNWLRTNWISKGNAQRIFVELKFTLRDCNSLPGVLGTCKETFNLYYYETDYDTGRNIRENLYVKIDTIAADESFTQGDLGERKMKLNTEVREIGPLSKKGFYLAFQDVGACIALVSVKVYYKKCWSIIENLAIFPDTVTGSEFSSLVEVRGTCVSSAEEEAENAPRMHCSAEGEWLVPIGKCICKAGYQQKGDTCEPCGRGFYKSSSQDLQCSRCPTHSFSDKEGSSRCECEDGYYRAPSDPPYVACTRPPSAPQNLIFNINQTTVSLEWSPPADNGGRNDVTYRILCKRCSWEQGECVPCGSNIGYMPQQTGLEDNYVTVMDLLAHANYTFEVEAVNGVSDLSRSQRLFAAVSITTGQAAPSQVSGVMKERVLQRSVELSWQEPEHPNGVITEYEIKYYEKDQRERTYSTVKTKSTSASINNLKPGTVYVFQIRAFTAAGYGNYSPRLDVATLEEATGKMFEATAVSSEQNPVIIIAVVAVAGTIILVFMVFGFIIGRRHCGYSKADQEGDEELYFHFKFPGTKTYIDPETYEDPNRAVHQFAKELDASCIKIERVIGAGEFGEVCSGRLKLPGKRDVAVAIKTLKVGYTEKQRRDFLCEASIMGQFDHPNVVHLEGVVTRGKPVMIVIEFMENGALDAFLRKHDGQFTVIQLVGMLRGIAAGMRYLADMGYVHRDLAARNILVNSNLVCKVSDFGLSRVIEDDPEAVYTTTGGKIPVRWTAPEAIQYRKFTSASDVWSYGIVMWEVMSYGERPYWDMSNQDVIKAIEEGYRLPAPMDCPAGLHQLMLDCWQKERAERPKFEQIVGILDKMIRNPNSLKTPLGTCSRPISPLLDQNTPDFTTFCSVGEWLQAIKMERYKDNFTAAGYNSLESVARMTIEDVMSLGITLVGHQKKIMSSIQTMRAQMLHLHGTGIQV
procedure.summary: Kinase Profiling Assay
Type: biochemical
condition.info: 100 μM peptide
Give EphA7(h) % activity for every item shown.
Report the value in % with no unit label.

EphA7(h) % activity measured on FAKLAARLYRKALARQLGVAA [MMI-0300] = 159

EphA7(h) % activity measured on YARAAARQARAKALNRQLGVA (Mammalian) [MMI-0200] = 220

EphA7(h) % activity measured on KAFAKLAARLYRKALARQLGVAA [MMI-0400] = 222

EphA7(h) % activity measured on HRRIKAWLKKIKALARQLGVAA (Mammalian) [MMI-0500] = 189

###

study.system: PKCβI(h) (Homo sapiens, UniProt P05771)
procedure.summary: Kinase Profiling Assay
Type: biochemical
condition.info: 100 μM peptide
Experimental: Every kinase activity measurement was conducted in duplicate. In addition to determining the IC50 of the compound, the specificity of MK2 inhibitory peptides was assessed by examining activities of all 266 human kinases available for testing in the Millipore kinase profiling service (Table 1).
Give PKCβI(h) % activity for every item shown.
Report the value in % with no unit label.

PKCβI(h) % activity measured on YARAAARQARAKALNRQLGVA (Mammalian) [MMI-0200] = 98

PKCβI(h) % activity measured on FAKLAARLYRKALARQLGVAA [MMI-0300] = 78

PKCβI(h) % activity measured on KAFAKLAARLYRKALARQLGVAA [MMI-0400] = 78

PKCβI(h) % activity measured on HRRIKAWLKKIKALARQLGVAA (Mammalian) [MMI-0500] = 1

###

study.system: Mer(h) (Homo sapiens)
Sequence (Q12866 21-999): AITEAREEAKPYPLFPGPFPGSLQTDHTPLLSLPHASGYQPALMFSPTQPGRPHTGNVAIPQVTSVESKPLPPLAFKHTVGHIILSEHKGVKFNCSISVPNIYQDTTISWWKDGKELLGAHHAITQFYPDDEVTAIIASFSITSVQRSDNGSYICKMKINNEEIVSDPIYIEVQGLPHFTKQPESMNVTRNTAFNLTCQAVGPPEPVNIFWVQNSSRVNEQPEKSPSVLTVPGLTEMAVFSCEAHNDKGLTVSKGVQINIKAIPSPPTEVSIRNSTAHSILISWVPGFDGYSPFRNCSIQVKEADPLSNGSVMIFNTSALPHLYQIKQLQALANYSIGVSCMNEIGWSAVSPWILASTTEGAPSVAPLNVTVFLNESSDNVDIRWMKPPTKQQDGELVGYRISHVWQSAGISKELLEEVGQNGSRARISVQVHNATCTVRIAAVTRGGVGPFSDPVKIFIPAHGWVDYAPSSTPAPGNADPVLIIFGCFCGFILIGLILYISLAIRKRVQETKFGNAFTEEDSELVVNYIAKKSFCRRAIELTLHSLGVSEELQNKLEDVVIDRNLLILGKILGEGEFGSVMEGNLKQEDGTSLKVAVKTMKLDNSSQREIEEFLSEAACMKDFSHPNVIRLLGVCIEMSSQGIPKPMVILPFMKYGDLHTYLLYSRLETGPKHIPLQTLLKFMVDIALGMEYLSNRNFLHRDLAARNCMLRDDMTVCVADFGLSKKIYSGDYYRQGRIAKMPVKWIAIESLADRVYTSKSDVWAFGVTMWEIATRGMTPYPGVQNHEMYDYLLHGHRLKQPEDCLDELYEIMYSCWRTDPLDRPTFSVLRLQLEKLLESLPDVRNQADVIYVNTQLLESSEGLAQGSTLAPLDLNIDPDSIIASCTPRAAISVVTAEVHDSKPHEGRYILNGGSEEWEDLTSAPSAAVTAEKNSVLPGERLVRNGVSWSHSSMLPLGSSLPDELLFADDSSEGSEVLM
procedure.summary: Kinase Profiling Assay
Type: biochemical
condition.info: 100 μM peptide
quantity: Mer(h) % activity (%)
Report the value in % with no unit label.

Mer(h) % activity measured on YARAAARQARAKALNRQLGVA (Mammalian) [MMI-0200] = 90

Mer(h) % activity measured on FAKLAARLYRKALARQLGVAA [MMI-0300] = 52

Mer(h) % activity measured on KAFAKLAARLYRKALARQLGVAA [MMI-0400] = 50

Mer(h) % activity measured on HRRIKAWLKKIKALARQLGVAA (Mammalian) [MMI-0500] = 17

###

study.system: mTOR(h) (Homo sapiens, UniProt P42345)
procedure.summary: Kinase Profiling Assay
Assay type: biochemical
condition.info: 100 μM peptide
quantity: mTOR(h) % activity (%)
Report the value in % with no unit label.

mTOR(h) % activity measured on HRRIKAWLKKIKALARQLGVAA (Mammalian) [MMI-0500] = 135

mTOR(h) % activity measured on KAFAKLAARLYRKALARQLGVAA [MMI-0400] = 93

mTOR(h) % activity measured on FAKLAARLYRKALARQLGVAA [MMI-0300] = 91

mTOR(h) % activity measured on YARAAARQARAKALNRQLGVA (Mammalian) [MMI-0200] = 110

###

study.system: CaMKI(h) (Homo sapiens)
Sequence (Q14012 whole entry): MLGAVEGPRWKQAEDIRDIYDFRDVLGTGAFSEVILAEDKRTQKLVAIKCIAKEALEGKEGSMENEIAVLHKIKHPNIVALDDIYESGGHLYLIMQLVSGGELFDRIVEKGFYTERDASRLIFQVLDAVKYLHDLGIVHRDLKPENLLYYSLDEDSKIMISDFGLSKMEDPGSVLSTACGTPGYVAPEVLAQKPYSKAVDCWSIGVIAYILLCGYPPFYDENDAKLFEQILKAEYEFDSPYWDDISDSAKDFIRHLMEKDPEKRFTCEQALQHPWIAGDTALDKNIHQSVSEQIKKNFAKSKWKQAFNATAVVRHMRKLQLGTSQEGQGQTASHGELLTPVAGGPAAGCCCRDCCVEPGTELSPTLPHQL
procedure.summary: Kinase Profiling Assay
Assay type: biochemical
condition.info: 100 μM peptide
quantity: CaMKI(h) % activity (%)
Report the value in % with no unit label.

CaMKI(h) % activity measured on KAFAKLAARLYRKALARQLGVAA [MMI-0400] = 0

CaMKI(h) % activity measured on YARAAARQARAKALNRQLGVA (Mammalian) [MMI-0200] = 21

CaMKI(h) % activity measured on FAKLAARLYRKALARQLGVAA [MMI-0300] = 1

CaMKI(h) % activity measured on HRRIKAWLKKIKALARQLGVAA (Mammalian) [MMI-0500] = −1

###

study.system: PKCθ(h) (Homo sapiens)
Construct: purchased Millipore (IC50 Profiler Express service)
Sequence (Q04759 whole entry): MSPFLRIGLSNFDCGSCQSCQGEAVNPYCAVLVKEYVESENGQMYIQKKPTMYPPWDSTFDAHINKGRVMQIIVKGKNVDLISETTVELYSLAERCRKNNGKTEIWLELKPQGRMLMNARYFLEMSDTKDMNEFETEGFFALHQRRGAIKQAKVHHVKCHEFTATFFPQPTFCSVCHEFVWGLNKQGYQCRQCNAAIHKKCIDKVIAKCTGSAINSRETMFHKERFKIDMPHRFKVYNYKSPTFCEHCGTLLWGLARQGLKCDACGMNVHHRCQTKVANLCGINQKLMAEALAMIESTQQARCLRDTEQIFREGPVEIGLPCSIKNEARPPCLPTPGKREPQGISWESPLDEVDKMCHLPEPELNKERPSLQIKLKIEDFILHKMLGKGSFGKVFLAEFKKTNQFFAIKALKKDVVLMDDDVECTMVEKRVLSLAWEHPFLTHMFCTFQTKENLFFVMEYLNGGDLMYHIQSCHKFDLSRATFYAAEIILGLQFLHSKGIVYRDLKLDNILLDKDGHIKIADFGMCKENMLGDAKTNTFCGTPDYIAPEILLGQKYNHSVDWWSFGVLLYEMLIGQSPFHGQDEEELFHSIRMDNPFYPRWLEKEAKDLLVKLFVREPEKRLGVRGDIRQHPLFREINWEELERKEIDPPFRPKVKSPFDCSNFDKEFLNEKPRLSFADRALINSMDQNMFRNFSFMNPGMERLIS
procedure.summary: Kinase Profiling Assay
Assay type: biochemical
condition.info: 100 μM peptide
quantity: PKCθ(h) % activity
Give the number first and the unit second.

The value of PKCθ(h) % activity recorded for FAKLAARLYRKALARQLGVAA [MMI-0300] when tested on PKCθ(h) (Homo sapiens) reads 88%

The value of PKCθ(h) % activity recorded for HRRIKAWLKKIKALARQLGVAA (Mammalian) [MMI-0500] when tested on PKCθ(h) (Homo sapiens) reads 62%

The value of PKCθ(h) % activity recorded for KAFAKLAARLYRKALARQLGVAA [MMI-0400] when tested on PKCθ(h) (Homo sapiens) reads 76%

The value of PKCθ(h) % activity recorded for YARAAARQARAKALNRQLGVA (Mammalian) [MMI-0200] when tested on PKCθ(h) (Homo sapiens) reads 101%
